target: NEK2 (Homo sapiens, UniProt P51955); construct: purchased Eurofins Pharma Discovery Services (KinaseProfiler; Cerep BioPrint panel); test: kinase selectivity panel; assay type: biochemical; conditions: read-out: percentage of control activity (POC), NEK2
Sequence (P51955 whole entry): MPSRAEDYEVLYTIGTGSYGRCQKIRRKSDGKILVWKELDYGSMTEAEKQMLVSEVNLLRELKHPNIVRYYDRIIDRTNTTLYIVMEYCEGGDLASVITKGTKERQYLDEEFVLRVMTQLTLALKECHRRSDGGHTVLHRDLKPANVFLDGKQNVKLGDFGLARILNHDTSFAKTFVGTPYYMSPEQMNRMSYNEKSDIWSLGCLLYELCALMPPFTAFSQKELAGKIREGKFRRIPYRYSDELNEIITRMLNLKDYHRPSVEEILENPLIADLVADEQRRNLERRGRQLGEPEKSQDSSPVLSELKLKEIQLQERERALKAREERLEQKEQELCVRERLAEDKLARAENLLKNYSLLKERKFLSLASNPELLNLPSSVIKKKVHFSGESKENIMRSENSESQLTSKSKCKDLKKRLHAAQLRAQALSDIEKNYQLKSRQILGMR
experimental-readout: remaining activity at 10 µM (%)

> print(dat)
                                   compound         experimental.readout  unit.symbol  value.measured
1  CC(C)(C)N1CCC(c2cc(-c3ccc(F)cc3Cl)c3cc[n+]([O-])c(-c4c(Cl)cccc4Cl)c3n2)CC1  remaining activity at 10 µM            %             100
2  CS(=O)(=O)N1CCN(c2ccc(Nc3ncc(C(N)=O)c(NC4CC4)n3)cc2)CC1  remaining activity at 10 µM            %               4
3  Cc1ccc(C(=O)NCC2CC2)cc1-c1ccc2c(c1)NC(=O)C21CCCC1  remaining activity at 10 µM            %              99
4  Cn1cc(-c2cccc(-c3nc(C(=O)NC4C5CC6CC4CC(O)(C6)C5)c(N)nc3N)c2)cn1 (centres unmarked)  remaining activity at 10 µM            %              85
5  COc1c(NC(=O)c2ccc(C)c(-c3nnc4c(NCC(C)(C)C)nccn34)c2)cc(C(C)(C)C)cc1NS(C)(=O)=O [compound 7, reference compound]  remaining activity at 10 µM            %              95
